Cited source for all entries: patent US12012411B2

Each item that follows carries a reported CC50 at 4 days.
assay: in vitro; conditions: African green monkey, uninfected quiescent Vero-B cells
readout_name: CC50 at 4 days

>>> experimental_value("COc1cccc(NC(C(=O)c2c[nH]c3ccccc23)c2ccc(N(C)C)nc2)c1 (centres unmarked)")
"> 125 µM"
>>> experimental_value("COc1cccc(NC(C(=O)c2c[nH]c3ccccc23)c2cn3ncccc3n2)c1 (centres unmarked)")
"> 125 µM"
>>> experimental_value("COc1cc(CO)cc(NC(C(=O)c2c[nH]c3ccccc23)c2cccnc2)c1 (centres unmarked)")
"> 128 µM"
>>> experimental_value("COc1cccc(NC(C(=O)c2c[nH]c3ccccc23)c2cn3cccc(C)c3n2)c1 (centres unmarked)")
"> 121 µM"
>>> experimental_value("COc1cccc(NC(C(=O)c2nn(C)c3c2CN(C)CC3)c2ccccc2)c1 (centres unmarked)")
"> 128 µM"

---

# CC50 at 4 days per record follows
experiment: in vitro; conditions: African green monkey, uninfected quiescent Vero-B cells
readout_name: CC50 at 4 days

>>> experimental_value("COc1cccc(NC(C(=O)c2c[nH]c3cc(C(=O)O)ccc23)c2ccccc2)c1 (stereo not shown)")
"> 124 µM"
>>> experimental_value("COc1cccc(NC(C(=O)c2nn(C)c3cc(F)ccc23)c2ccccc2)c1 (stereo not shown)")
"> 128 µM"
>>> experimental_value("COc1cccc(NC(C(=O)c2cn(C)c3ccccc23)c2cc(C)on2)c1 (stereo not shown)")
"> 133 µM"
>>> experimental_value("COc1cc(NC(C(=O)c2cn(C)c3ccccc23)c2ccccc2)cc(OCCO)c1 (stereo not shown)")
"> 116 µM"
>>> experimental_value("COc1cc(NC(C(=O)c2c[nH]c3ccccc23)c2ccccc2)cc(C(F)(F)F)c1 (stereo not shown)")
"8 µM"
>>> experimental_value("O=C(c1c[nH]c2ccccc12)C(Nc1cncc(OC(F)F)c1)c1ccccc1 (stereo not shown)")
"13 µM"
>>> experimental_value("COc1cc(NC(C(=O)c2c[nH]c3ccccc23)c2ccccc2)nc(OC)n1 (stereo not shown)")
"> 128 µM"
>>> experimental_value("CCCN1CCC(NC(C(=O)c2c[nH]c3ccccc23)c2ccccc2)CC1 (stereo not shown)")
"70 µM"
>>> experimental_value("COc1cc(NC(C(=O)c2cn(S(C)(=O)=O)c3ccccc23)c2ccccc2)ccn1 (stereo not shown)")
"60 µM"
>>> experimental_value("COc1cccc(NC(C(=O)c2c[nH]c3ccc(OC)cc23)c2ccccc2)c1 (stereo not shown)")
"19 µM"
>>> experimental_value("COc1cccc(NC(C(=O)c2nn(C)c3ccccc23)c2ccccc2)c1 (stereo not shown)")
"> 134 µM"
>>> experimental_value("CCOC(=O)c1cccc(NC(C(=O)c2c[nH]c3ccccc23)c2ccccc2)c1 (stereo not shown)")
"12 µM"
>>> experimental_value("COc1cccc(NC(C(=O)c2cn(C)c3ccccc23)c2ccccc2)c1 (stereo not shown)")
"> 134 µM"
>>> experimental_value("COc1cccc(NC(C(=O)c2c[nH]c3ccccc23)c2cn3c(n2)COCC3)c1 (stereo not shown)")
"> 124 µM"
>>> experimental_value("COc1cc(NC(C(=O)c2c[nH]c3ccccc23)c2ccccc2)cnc1N(C)C (stereo not shown)")
"17 µM"
>>> experimental_value("COc1cc(CO)cc(NC(C(=O)c2c[nH]c3ccccc23)c2ccc(F)nc2)c1 (stereo not shown)")
"90 µM"
>>> experimental_value("CCOc1cncc(NC(C(=O)c2c[nH]c3ccccc23)c2ccccc2)c1 (stereo not shown)")
"16 µM"
>>> experimental_value("COc1cccc(NC(C(=O)c2nn(C)c3cc(OC)ccc23)c2ccccc2)c1 (stereo not shown)")
"> 124 µM"
>>> experimental_value("COc1cc(NC(C(=O)c2cn(C)c3c(CCO)cccc23)c2ccccc2)cc(OC)c1 (stereo not shown)")
"63 µM"
>>> experimental_value("COc1cc(NC(C(=O)c2c[nH]c3cc(Cl)ccc23)c2cn3ccccc3n2)ccn1 (stereo not shown)")
"71 µM"
>>> experimental_value("COc1cncc(NC(C(=O)c2c[nH]c3ccccc23)c2cc3ccccn3n2)n1 (stereo not shown)")
"> 125 µM"
>>> experimental_value("O=C(c1c[nH]c2ccccc12)C(Nc1ccc2nccnc2c1)c1ccccc1 (stereo not shown)")
"87 µM"
>>> experimental_value("COc1cccc(NC(C(=O)c2cn(S(=O)(=O)C3CCNCC3)c3ccccc23)c2ccccc2)c1 (stereo not shown)")
"11 µM"
>>> experimental_value("NC(=O)c1cccc(NC(C(=O)c2c[nH]c3ccccc23)c2ccccc2)c1 (stereo not shown)")
"90 µM"
>>> experimental_value("COc1cccc(NC(C(=O)c2c[nH]c3ccc(F)cc23)c2cccnc2)c1 (stereo not shown)")
"> 133 µM"
>>> experimental_value("CNS(=O)(=O)c1cccc(NC(C(=O)c2c[nH]c3ccccc23)c2ccccc2)c1 (stereo not shown)")
"52 µM"
>>> experimental_value("COC(=O)c1ccc2[nH]cc(C(=O)C(Nc3cccc(OC)c3)c3ccccc3)c2c1 (stereo not shown)")
"13 µM"
>>> experimental_value("COc1cc(NC(C(=O)c2c[nH]c3cc(F)ccc23)c2ccccc2)cc(OCCO)c1 (stereo not shown)")
"29 µM"
>>> experimental_value("COc1cc(NC(C(=O)c2c[nH]c3ccccc23)c2ccc(C)cc2)cc(OCCO)c1 (stereo not shown)")
"11 µM"
>>> experimental_value("COc1cncc(NC(C(=O)c2c[nH]c3cc(F)ccc23)c2ccc(OC)nc2)c1 (stereo not shown)")
"59 µM"
>>> experimental_value("COc1cc(CO)cc(NC(C(=O)c2c[nH]c3cc(F)ccc23)c2cccnc2)c1 (stereo not shown)")
"94 µM"
